# Tested on: Echinochloa oryzoides (Ard.) Fritsch.
# Method Description: Preemergence weed control under flooded paddy conditions, ECHORC (Watergrass (Calif.)); as to herbicidal effect rating, ECHORC: meaning of each grade not given here
# Assay type: in vivo
# Experimental Context: 0.0313 kg/ha; preemergence weeds, flooded paddy; rated three to four weeks after treatment
Catalogue of herbicidal effect rating, ECHORC readings, one per entry.
The answer should be a number; do not append a unit.

Illustrative cases are given below, each with its answer.
{"Smiles String": "Cc1ccc(OCC(=O)NS(C)(=O)=O)c(-c2nsc3ccc(-n4c(=O)cc(C(F)(F)F)n(C)c4=O)cc23)c1", "herbicidal effect rating, ECHORC": 6.0}
{"Smiles String": "CCOCCOCc1nsc2ccc(-n3c(=O)cc(C(F)(F)F)n(C)c3=O)cc12", "herbicidal effect rating, ECHORC": 0.0}

Shift focus to the following entry.
Data request: Request body: readout herbicidal effect rating, ECHORC, system Echinochloa oryzoides (Ard.) Fritsch., query Cn1c(C(F)(F)F)cc(=O)n(-c2ccc3snc(NS(C)(=O)=O)c3c2)c1=O . Return the value.
Data returned: 0.0

* * *

# Test system: Monochoria vaginalis, Presl.
# Method Description: Preemergence weed control under flooded paddy conditions, MOOVA (Monochoria); also: meaning of each grade not given here
# Type: in vivo
# Experimental Context: Rate 0.1250 kg/ha; preemergence, flooded paddy; rated three to four weeks after treatment
Catalogue of herbicidal effect rating, MOOVA readings, one per entry.
The answer should be a number; do not append a unit.

{"Molecule": "CC(C)S(=O)(=O)OCc1nsc2ccc(-n3c(=O)cc(C(F)(F)F)n(C)c3=O)cc12", "Measured Target": "Monochoria vaginalis, Presl.", "Value Reported": 9.0}

Data request: Form field: reported herbicidal effect rating, MOOVA of Cn1c(C(F)(F)F)cc(=O)n(-c2ccc3snc(C(C#N)=Cc4ccncc4)c3c2)c1=O
Data returned: 7.0

Data request: Again, but for CC(C)C=C(C#N)c1nsc2ccc(-n3c(=O)cc(C(F)(F)F)n(C)c3=O)cc12
Data returned: 9.0

Data request: Again, but for CN(C(=O)c1nsc2ccc(-n3c(=O)cc(C(F)(F)F)n(C)c3=O)cc12)S(C)(=O)=O
Data returned: 9.0

Data request: Again, but for Cn1c(C(F)(F)F)cc(=O)n(-c2ccc3snc(C(C#N)=Cc4ccc(O)cc4)c3c2)c1=O
Data returned: 7.0

Data request: Again, but for Cn1c(C(F)(F)F)cc(=O)n(-c2ccc3snc(COC(=O)Cc4ccccc4)c3c2)c1=O
Data returned: 9.0

Data request: Again, but for COC(=O)COc1ccc(C)cc1-c1noc2cc(F)c(-n3c(=O)cc(C(F)(F)F)n(C)c3=O)cc12
Data returned: 9.0

* * *

# System: Cyperus iria
# Method Description: Preemergence weed control under flooded paddy conditions, CYPIR (Rice Flatsedge); also: meaning of each grade not given here
# Format: in vivo
# Experimental Context: Rate 0.2500 kg/ha; preemergence, flooded paddy; rated three to four weeks after treatment
Measured Metric: herbicidal effect rating, CYPIR
The answer should be a number; do not append a unit.

Data request: Form field: reported herbicidal effect rating, CYPIR of Cn1c(C(F)(F)F)cc(=O)n(-c2ccc3snc(COC(=O)Cc4ccc(Cl)cc4Cl)c3c2)c1=O [Example 401]
Data returned: 6.0

Data request: Again, but for Cn1c(C(F)(F)F)cc(=O)n(-c2ccc3snc(C(C#N)=Cc4ccccn4)c3c2)c1=O [Example 592]
Data returned: 6.0

Data request: Again, but for CCCCCCCCCCCCS(=O)(=O)NC(=O)c1nsc2ccc(-n3c(=O)cc(C(F)(F)F)n(C)c3=O)cc12 [Example 358]
Data returned: 7.0

Data request: Again, but for C=C(Cl)COC(=O)c1nsc2ccc(-n3c(=O)cc(C(F)(F)F)n(C)c3=O)cc12 [Example 386]
Data returned: 9.0

* * *

# System: Cyperus iria
# Method Description: Preemergence weed control under flooded paddy conditions, CYPIR (Rice Flatsedge); also: meaning of each grade not given here
# Assay type: in vivo
# Experimental Context: 0.2500 kg/ha; preemergence weeds, flooded paddy; rated three to four weeks after treatment
Tag: T if measured herbicidal effect rating, CYPIR is not below 4, F if it is.

Consider the worked cases shown below.
{"Compound": "Cc1ccc(OC2CC(C)OC2=O)c(-c2nsc3ccc(-n4c(=O)cc(C(F)(F)F)n(C)c4=O)cc23)c1 (racemic)", "Measured Target": "Cyperus iria", "Discrete Label": "F"}
{"Compound": "CCN(CC)c1nsc2ccc(-n3c(=O)cc(C(F)(F)F)n(C)c3=O)cc12", "Measured Target": "Cyperus iria", "Discrete Label": "F"}
{"Compound": "Cn1c(C(F)(F)F)cc(=O)n(-c2ccc3snc(COCC(F)F)c3c2)c1=O", "Measured Target": "Cyperus iria", "Discrete Label": "T"}

Alright, here's another compound for you.
Data request: For this compound, is measured herbicidal effect rating, CYPIR 4 or higher? Cn1c(C(F)(F)F)cc(=O)n(-c2ccc3snc(C(CCl)CCl)c3c2)c1=O
Data returned: T

* * *

# Test system: Echinochloa oryzoides (Ard.) Fritsch.
# Method Description: Preemergence weed control under flooded paddy conditions, ECHORC (Watergrass (Calif.))
# Assay type: in vivo
# Experimental Context: 0.0320 kg/ha; preemergence, flooded paddy; rated three to four weeks after treatment
Measured Metric: ECHORC herbicidal rating
The answer should be a number; do not append a unit.

Illustrative cases are given below, each with its answer.
{"Molecule": "COc1ccc(CC(=O)OCc2nsc3ccc(-n4c(=O)cc(C(F)(F)F)n(C)c4=O)cc23)cc1OC [Example 502]", "ECHORC herbicidal rating": 3.0}
{"Molecule": "COc1ccc(C)cc1-c1nsc2cc(F)c(-n3c(=O)cc(C(F)(F)F)n(C)c3=O)cc12 [Example 462]", "ECHORC herbicidal rating": 9.0}
{"Molecule": "COC(CCOc1ccc(C)cc1-c1nsc2ccc(-n3c(=O)cc(C(F)(F)F)n(C)c3=O)cc12)OC [Example 467]", "ECHORC herbicidal rating": 6.0}
{"Molecule": "CC(C)NS(=O)(=O)NC(=O)c1nsc2ccc(-n3c(=O)cc(C(F)(F)F)n(C)c3=O)cc12 [Example 508]", "ECHORC herbicidal rating": 2.0}
{"Molecule": "Cn1c(C(F)(F)F)cc(=O)n(-c2ccc3snc(C(=O)NS(N)(=O)=O)c3c2)c1=O [Example 472]", "ECHORC herbicidal rating": 3.0}

Data request: Form field: reported ECHORC herbicidal rating of CC(C)c1nsc2ccc(-n3c(=O)cc(C(F)(F)F)n(C)c3=O)cc12 [Example 499]
Data returned: 7.5

Data request: Again, but for COc1ccc(OC)c(CC(=O)OCc2nsc3ccc(-n4c(=O)cc(C(F)(F)F)n(C)c4=O)cc23)c1 [Example 503]
Data returned: 2.0

Data request: Again, but for Cn1c(C(F)(F)F)cc(=O)n(-c2ccc3snc(COC(=O)C4CC4)c3c2)c1=O [Example 496]
Data returned: 4.0

* * *

Catalogue of herbicidal effect rating, SAGPY readings, one per entry.
# Test system: Sagittaria pygmaea, L.
# Method Description: Postemergence weed control under flooded paddy conditions, SAGPY (Arrowhead (Pygmaea))
# Type: in vivo
# Experimental Context: Rate 0.1250 kg/ha, rated three to four weeks after treatment

Illustrative cases are given below, each with its answer.
{"Compound": "COC(=O)COc1ccc(C)cc1-c1nsc2ccc(-n3c(=O)cc(C(F)(F)F)n(C)c3=O)cc12 [Example 2]", "Value Reported": 0.0}
{"Compound": "Cc1ccc(OCC(=O)OCC2(c3ccccc3)CC2)c(-c2nsc3ccc(-n4c(=O)cc(C(F)(F)F)n(C)c4=O)cc23)c1 [Example 517]", "Value Reported": 0.0}
{"Compound": "COC(=O)COc1cc(C)c(C)cc1-c1nsc2ccc(-n3c(=O)cc(C(F)(F)F)n(C)c3=O)cc12 [Example 12]", "Value Reported": 0.0}

Shift focus to the following entry.
Data request: Form field: reported herbicidal effect rating, SAGPY of Cc1nsc2ccc(-n3c(=O)cc(C(F)(F)F)n(C)c3=O)cc12 [Example 6]
Data returned: 6.0

* * *

# System: Echinochloa oryzoides (Ard.) Fritsch.
# Method Description: Preemergence weed control under flooded paddy conditions, ECHORC (Watergrass (Calif.)); as to herbicidal effect rating, ECHORC: meaning of each grade not given here
# Assay type: in vivo
# Experimental Context: Rate 0.1250 kg/ha; preemergence, flooded paddy; rated 3-4 weeks after treatment
Measured Metric: herbicidal effect rating, ECHORC
The answer should be a number; do not append a unit.

{"Compound": "Cc1ccc(OCC(=O)C(C)(C)C)c(-c2nsc3ccc(-n4c(=O)cc(C(F)(F)F)n(C)c4=O)cc23)c1 [Example 540]", "Measured Metric": "herbicidal effect rating, ECHORC", "Value Reported": 4.7}
{"Compound": "Cc1ccc(C(=O)C(C)Oc2ccccc2-c2nsc3ccc(-n4c(=O)cc(C(F)(F)F)n(C)c4=O)cc23)cc1C (stereo not shown) [Example 550]", "Measured Metric": "herbicidal effect rating, ECHORC", "Value Reported": 5.9}
{"Compound": "CON(C)C(=O)/C=C/c1nsc2ccc(-n3c(=O)cc(C(F)(F)F)n(C)c3=O)cc12 [Example 565]", "Measured Metric": "herbicidal effect rating, ECHORC", "Value Reported": 0.0}
{"Compound": "CC(Oc1ccccc1-c1nsc2ccc(-n3c(=O)cc(C(F)(F)F)n(C)c3=O)cc12)C(=O)N(C)C (stereo not shown) [Example 551]", "Measured Metric": "herbicidal effect rating, ECHORC", "Value Reported": 7.0}
{"Compound": "CCCS(=O)(=O)NC(=O)COc1ccccc1-c1nsc2ccc(-n3c(=O)cc(C(F)(F)F)n(C)c3=O)cc12 [Example 556]", "Measured Metric": "herbicidal effect rating, ECHORC", "Value Reported": 4.4}

Data request: Form field: reported herbicidal effect rating, ECHORC of CC(C)S(=O)(=O)NC(=O)COc1ccccc1-c1nsc2ccc(-n3c(=O)cc(C(F)(F)F)n(C)c3=O)cc12 [Example 555]
Data returned: 4.6

Data request: Again, but for Cc1nsc2ccc(-n3c(=O)cc(C(F)(F)F)n(CCF)c3=O)cc12 [Example 516]
Data returned: 0.0
